Test system: HeLa
Experiment: Cytotoxic activity against human HeLa cells by Cell-titer blue assay
Assay type: functional, cell-based
parameter: IC50 (µM)

In [3]: df
Out[3]:
                                   compound  assay_system  parameter  limit_operator  endpoint_value
0  O=C(OC/C=C\[C@H](Cl)[C@@](O)(CO)COC(=O)c1ccccc1)c1ccccc1 (relative stereo)          HeLa       IC50               >              45
1  CC(=O)O[C@@H]1C(=O)C=COC=C1COC(=O)c1ccccc1          HeLa       IC50               =            25.5

These measurements were taken from ChEMBL document CHEMBL4130573.
